Test system: Staphylococcus aureus
Assay: Antibacterial activity against Staphylococcus aureus N175
Assay type: functional
Could you please mark Met for values of MIC below 4 µg/mL and Not met for values at or above it?

Worked examples follow.
molecule	class-assignment
C[C@@H]1CN(c2c(F)c(N)c3c(=O)c(C(=O)O)cn(C4CC4)c3c2F)C[C@H](C)N1 [SPARFLOXACIN]	Met
Clc1cccc(-n2nc(C3CCNCC3)cc2-c2ccc3ccccc3c2)c1	Not met
Clc1cccc(-n2nc(C3CCNCC3)cc2/C=C/c2c[nH]c3ccc(Cl)cc23)c1	Met

Lab note: next molecule to report on.
Find out if reported MIC for `c1ccc(COc2ccc(-c3cc(C4CCNCC4)[nH]n3)cc2)cc1` is less than 4 µg/mL Not met

====

Assay: Antibacterial activity against […] pneumoniae ATCC 49619
Type: functional
Conditions: Streptococcus pneumoniae
reported-property: MIC (µg/mL)
Numeric answer only, unit µg/mL assumed.

Use the examples below as a reference point.
molecule-smiles	units	MIC
Clc1cccc(-n2nc(C3CCNCC3)cc2/C=C/c2c[nH]c3ccc(Cl)cc23)c1	µg/mL	2
Clc1cccc(-n2nc(C3CCNCC3)cc2-c2ccc3ccccc3c2)c1	µg/mL	8
CO[C@@H]1[C@@H](OC(N)=O)[C@@H](O)[C@H](Oc2ccc3c(O)c(NC(=O)c4ccc(O)c(CC=C(C)C)c4)c(=O)oc3c2C)OC1(C)C	µg/mL	0.5

What measured MIC goes with `c1ccc(COc2ccc(-c3cc(C4CCNCC4)[nH]n3)cc2)cc1` ? 64

====

The entries below are paired with their reported MIC.
Tested on: Staphylococcus aureus
Experiment: Antibacterial activity against Staphylococcus aureus RN4220
Type: functional
Numeric answer only, unit µg/mL assumed.

Use the examples below as a reference point.
molecule-smiles	units	MIC
CO[C@@H]1[C@@H](OC(N)=O)[C@@H](O)[C@H](Oc2ccc3c(O)c(NC(=O)c4ccc(O)c(CC=C(C)C)c4)c(=O)oc3c2C)OC1(C)C	µg/mL	0.125
c1ccc(COc2ccc(-c3cc(C4CCNCC4)[nH]n3)cc2)cc1	µg/mL	64
C[C@@H]1CN(c2c(F)c(N)c3c(=O)c(C(=O)O)cn(C4CC4)c3c2F)C[C@H](C)N1	µg/mL	0.125
Clc1cccc(-n2nc(C3CCNCC3)cc2-c2ccc3ccccc3c2)c1	µg/mL	8

Next up:
What measured MIC goes with `Clc1cccc(-n2nc(C3CCNCC3)cc2/C=C/c2c[nH]c3ccc(Cl)cc23)c1` ? 2

====

The entries below are paired with their reported MIC.
Tested on: Escherichia coli
Assay: Antibacterial activity against Escherichia coli K 901
Type: functional
Numeric answer only, unit µg/mL assumed.

Use the examples below as a reference point.
molecule	experimental-system	measured-value
Clc1cccc(-n2nc(C3CCNCC3)cc2/C=C/c2c[nH]c3ccc(Cl)cc23)c1	Escherichia coli	4
C[C@@H]1CN(c2c(F)c(N)c3c(=O)c(C(=O)O)cn(C4CC4)c3c2F)C[C@H](C)N1 [SPARFLOXACIN]	Escherichia coli	0.004
Cn1nc(C2CCNCC2)cc1-c1ccc(OCc2ccccc2)cc1	Escherichia coli	64
Clc1cccc(-n2nc(/C=C/c3c(Cl)cccc3Cl)cc2C2CCNCC2)c1	Escherichia coli	8
c1ccc2cc(-c3cc(C4CCNCC4)n[nH]3)ccc2c1	Escherichia coli	64

What measured MIC goes with `Clc1ccc(/C=C/c2cc(C3CCNCC3)[nH]n2)cc1Cl` ? 4

What measured MIC goes with `c1ccc(COc2ccc(-c3cc(C4CCNCC4)[nH]n3)cc2)cc1` ? 64

What measured MIC goes with `Clc1cccc(-n2nc(C3CCNCC3)cc2-c2ccc(Oc3ccccc3)cc2)c1` ? 4

What measured MIC goes with `Clc1cccc(-n2nc(C3CCNCC3)cc2/C=C/c2c(Cl)cccc2Cl)c1` ? 4

What measured MIC goes with `Cn1nc(-c2ccc(OCc3ccccc3)cc2)cc1C1CCNCC1` ? 64
